Each entry below carries its recorded viability, T/C.
- Tested on: 616215-338-R-J1-PDC complex spheroid viability;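 also: spheroids exposed to agents for seven days before viability readout; 100% = DMSO vehicle control viability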
- measurement_protocol: Anticancer human tumor 616215-338-R-J1-PDC patient-derived colon adenocarcinoma cell line growth inhibition [RAS]
- condition: second compound 0.0316 µM; first compound 0.316 µM; stronger effect = lower value
Could you give me the number in %? Just the number is fine.

Would you please look over these solved cases?
C=CC(=O)Nc1cc(Nc2nccc(-c3cn(C)c4ccccc34)n2)c(OC)cc1N(C)CCN(C)C + C=CC(=O)N1CCN(c2nc(OCC3CCCN3C)nc3c(F)c(-c4nc(N)cc(C)c4C(F)(F)F)c(Cl)cc23)C(C)C1    108
CC(Nc1ccc2c(c1)OCCn1cc(N3C(=O)OCC3C(F)F)nc1-2)C(N)=O (stereo not drawn) + C=CC(=O)N1CCN(c2nc(OCC3CCCN3C)nc3c(F)c(-c4nc(N)cc(C)c4C(F)(F)F)c(Cl)cc23)C(C)C1    119
CC1(O)CCCC1n1c(=O)c(C(F)F)cc2cnc(NC3CCN(S(C)(=O)=O)CC3)nc21 (stereo not drawn) + C=CC(=O)N1CCN(c2nc(OCC3CCCN3C)nc3c(F)c(-c4nc(N)cc(C)c4C(F)(F)F)c(Cl)cc23)C(C)C1    50.3
Cc1nc(N2CCC3(CC2)COC(C)C3N)c(CO)nc1Sc1ccnc(N)c1Cl (stereo not drawn) + C=CC(=O)N1CCN(c2nc(OCC3CCCN3C)nc3c(F)c(-c4nc(N)cc(C)c4C(F)(F)F)c(Cl)cc23)C(C)C1    114
CCN1CCN(Cc2ccc(Nc3ncc(F)c(-c4cc(F)c5nc(C)n(C(C)C)c5c4)n3)nc2)CC1 + C=CC(=O)N1CCN(c2nc(OCC3CCCN3C)nc3c(F)c(-c4nc(N)cc(C)c4C(F)(F)F)c(Cl)cc23)C(C)C1    143
NC1c2ccccc2OC12CCN(c1cnc3c(N4CCCc5ncccc54)n[nH]c3n1)CC2 (stereo not drawn) + C#Cc1c(F)ccc2cc(O)cc(-c3ncc4c(N5CC6CCC(C5)N6)nc(OCC56CCCN5CC(F)C6)nc4c3F)c12    75.9

// recorded viability, T/C for CC(C)NCC(C(=O)N1CCN(c2ncnc3c2C(C)CC3O)CC1)c1ccc(Cl)cc1 (stereo not drawn) + C#Cc1c(F)ccc2cc(O)cc(-c3ncc4c(N5CC6CCC(C5)N6)nc(OCC56CCCN5CC(F)C6)nc4c3F)c12 : 108

// recorded viability, T/C for C=CC(=O)N1CCN(c2nc(OCC3CCCN3C)nc3c(F)c(-c4nc(N)cc(C)c4C(F)(F)F)c(Cl)cc23)C(C)C1 (stereo not drawn) + C#Cc1c(F)ccc2cc(O)cc(-c3ncc4c(N5CC6CCC(C5)N6)nc(OCC56CCCN5CC(F)C6)nc4c3F)c12 : 100

// recorded viability, T/C for O=C(c1ccc(F)c(F)c1Nc1ccc(I)cc1F)N1CC(O)([C@@H]2CCCCN2)C1 + C#Cc1c(F)ccc2cc(O)cc(-c3ncc4c(N5CC6CCC(C5)N6)nc(OCC56CCCN5CC(F)C6)nc4c3F)c12 : 12.5

// recorded viability, T/C for C=CC(=O)Nc1cc(Nc2nccc(-c3cn(C)c4ccccc34)n2)c(OC)cc1N(C)CCN(C)C + C#Cc1c(F)ccc2cc(O)cc(-c3ncc4c(N5CC6CCC(C5)N6)nc(OCC56CCCN5CC(F)C6)nc4c3F)c12 : 98.1

// recorded viability, T/C for CC(C)NCC(C(=O)N1CCN(c2ncnc3c2C(C)CC3O)CC1)c1ccc(Cl)cc1 (stereo not drawn) + C=CC(=O)N1CCN(c2nc(OCC3CCCN3C)nc3c(F)c(-c4nc(N)cc(C)c4C(F)(F)F)c(Cl)cc23)C(C)C1 : 105

// recorded viability, T/C for C[C@@H](NC(=O)c1ncnc(N)c1Cl)c1ncc(C(=O)Nc2cc(C(F)(F)F)c(Cl)cn2)s1 + C=CC(=O)N1CCN(c2nc(OCC3CCCN3C)nc3c(F)c(-c4nc(N)cc(C)c4C(F)(F)F)c(Cl)cc23)C(C)C1 : 114

// recorded viability, T/C for Nc1ccn(C2OC(CO)C(O)C2(F)F)c(=O)n1 (stereo not drawn) + C#Cc1c(F)ccc2cc(O)cc(-c3ncc4c(N5CC6CCC(C5)N6)nc(OCC56CCCN5CC(F)C6)nc4c3F)c12 : 13.2

// recorded viability, T/C for CCC(CC)c1cc(NC2CCC(N)C2)n2nccc2n1 (stereo not drawn) + C#Cc1c(F)ccc2cc(O)cc(-c3ncc4c(N5CC6CCC(C5)N6)nc(OCC56CCCN5CC(F)C6)nc4c3F)c12 : 109

// recorded viability, T/C for O=C(c1ccc(F)c(F)c1Nc1ccc(I)cc1F)N1CC(O)([C@@H]2CCCCN2)C1 + C=CC(=O)N1CCN(c2nc(OCC3CCCN3C)nc3c(F)c(-c4nc(N)cc(C)c4C(F)(F)F)c(Cl)cc23)C(C)C1 : 15

// recorded viability, T/C for CC(=O)OC12COC1CC(O)C1(C)C(=O)C(O)C3=C(C)C(OC(=O)C(O)C(NC(=O)OC(C)(C)C)c4ccccc4)CC(O)(C(OC(=O)c4ccccc4)C21)C3(C)C (stereo not drawn) + C=CC(=O)N1CCN(c2nc(OCC3CCCN3C)nc3c(F)c(-c4nc(N)cc(C)c4C(F)(F)F)c(Cl)cc23)C(C)C1 : 16.5

// recorded viability, T/C for CC(=O)OC12COC1CC(O)C1(C)C(=O)C(O)C3=C(C)C(OC(=O)C(O)C(NC(=O)OC(C)(C)C)c4ccccc4)CC(O)(C(OC(=O)c4ccccc4)C21)C3(C)C (stereo not drawn) + C#Cc1c(F)ccc2cc(O)cc(-c3ncc4c(N5CC6CCC(C5)N6)nc(OCC56CCCN5CC(F)C6)nc4c3F)c12 : 18.6

// recorded viability, T/C for CCN1CCN(Cc2ccc(Nc3ncc(F)c(-c4cc(F)c5nc(C)n(C(C)C)c5c4)n3)nc2)CC1 + C#Cc1c(F)ccc2cc(O)cc(-c3ncc4c(N5CC6CCC(C5)N6)nc(OCC56CCCN5CC(F)C6)nc4c3F)c12 : 131
